tested on: OVCAR-3 ovarian; experiment: NCI-60 one-dose screen, 48 h; settings: 10 µM unless noted
This is part of a sample that, as a whole, favours compounds with a hit. Of some 83,000 tested, about 20% had one in any assay. Calls of active or inactive are those of the source. Rule for the calls: active = growth percent below 10; inactive = the rest.
API: response.call in active, inactive

Known results for compounds:
* COc1ccc2c(c1)O/C(=C\c1cccc(OCC(=O)Nc3nc4c(s3)CCCC4)c1)C2=O | inactive
* CSc1ccc(SC2c3ccc(C)cc3Oc3nc(N)c(C#N)c(N)c32)cc1 (stereo not given) | active
* O=C(CN1C(=O)/C(=C/c2ccc(Cl)cc2)SC1=S)NCCCN1CCOCC1 | inactive
* COc1cccc(-c2nc3sccn3c2-c2ccnc(NCCCNS(=O)(=O)c3cccc(F)c3)c2)c1 | inactive

Any idea what this test logged for "CCCOc1cc2ccccc2cc1C(=O)Nc1nc(NC)c2c(ccc3nccc32)[nH]1" ?
active

* * *

system: MOLT-4 leukemia; assay: NCI-60 one-dose screen, 48 h (100 = growth as untreated, 0 = no growth, -100 = all killed); details: 10 µM unless noted
This is part of a sample that, as a whole, favours compounds with a hit. Of some 83,000 tested, about 20% had one in any assay. The source made the active and inactive calls. The calls were made as follows: active = growth percent below 10; inactive = the rest.
Entries annotated with measured growth

Use the examples below as a reference point.
* C#Cc1cccc(NC(=O)c2ccccc2NC(=O)C=C)c1 | 102% [8.25 µM] (inactive)
* COc1ccc(C(=O)c2sc3nc4c(c(-c5cccnc5)c3c2N)CCCC4)cc1OC | 41.4% (inactive)
* COc1cc2c(cc1-c1c(C)noc1C)ncc1nc(C3CCCCC3)n([C@H](C)COC(F)F)c12 | 47.6% (inactive)
* CC[C@@H](C(=O)[C@@H](C)[C@@H](O)[C@H](C)[C@@H]1O[C@@H]([C@@H](CC)C(=O)O)CC[C@@H]1C)[C@H]1OC2(C=C[C@@H](O)[C@]3(CC[C@@](C)([C@H]4CC[C@](O)(CC)[C@H](C)O4)O3)O2)[C@H](C)C[C@@H]1C (stereo partly drawn) | -8.95% (active)
* CCCc1cc(=O)n2c(C(=O)Nc3ccc(F)cc3)c(C(=O)Nc3ccc(F)cc3)sc2n1 | 97.9% [30 µM] (inactive)
* COc1ccc2c(c1)CC/C(=C\c1cncc(Br)c1)C2=O | 83.5% (inactive)
* O=C(/C=C/c1cccc([N+](=O)[O-])c1)c1ccc(O)c(CN2CCN(c3cc4c(cc3F)c(=O)c(C(=O)O)cn4C3CC3)CC2)c1 | 2.37% (active)

"O=C1c2ccccc2C(=O)c2c1ccc1[nH]c(-c3cccs3)nc21" has a reported growth of 70.1% (inactive)

* * *

test system: HOP-92 NSCLC; assay: NCI-60 one-dose screen, 48 h; settings: 10 µM unless noted
Compounds without any hit were thinned out: in the full panel of roughly 83,000, 20% have a hit. Activity calls are given as the source filed them. How the source made its calls: active means growth percent below 10; inactive means the rest.
API: response.call in active, inactive

Any idea what this test logged for "O=C(O)c1ccc(NC(=O)c2ccc(-c3cccc([N+](=O)[O-])c3)o2)cc1" ?
inactive

Any idea what this test logged for "Cn1ccnc1C(=O)/C=C/c1ccc(CC(=O)Nc2ccccc2)cc1" ?
inactive

Any idea what this test logged for COc1ccc(SC2c3cc(OC)c(OC)cc3Oc3nc(N)c(C#N)c(N)c32)cc1 (configuration not stated) ?
active

Any idea what this test logged for "O=C1c2cc3c(cc2-c2c1c1ccc(F)cc1c(=O)n2C[C@H](O)[C@H](O)[C@H](O)CO)OCO3" ?
active

Any idea what this test logged for "COc1ccc(-c2nnc(SCC(=O)c3ccc(Cl)cc3)o2)cc1" ?
inactive

Any idea what this test logged for "c1ccc2[nH]c(-c3ccc(Nc4nc(N5CCCC5)nc5[nH]ncc45)cc3)nc2c1" ?
active

Any idea what this test logged for "CN(C)[C@@H]1C(=O)C(C(=O)NCc2nc3[nH]cnc(=S)c3[nH]2)=C(O)[C@@]2(O)C(=O)C3=C(O)c4c(O)cccc4[C@@](C)(O)[C@H]3C[C@@H]12" ?
inactive

Any idea what this test logged for "COc1ccc(S(=O)(=O)N2CC3(COC3)C2)cc1NC(=O)c1[nH]c(C)c2c1CCCCC2=O" ?
inactive

Any idea what this test logged for "O=C1/C(=C/C(Cl)=C/c2ccccc2)SC(=S)N1CCc1ccc(O)cc1" ?
active

Any idea what this test logged for "COc1cc2c(cc1-c1c(C)noc1C)ncc1nc(C3CCCCC3)n([C@H](C)COC(F)F)c12" ?
inactive

Any idea what this test logged for "CN1CCN(c2ccc3nc(-c4ccc(OCCCCN5CCN(CCCCN6C(=O)c7cccc8cccc(c78)C6=O)CC5)cc4)[nH]c3c2)CC1" ?
active

Any idea what this test logged for O=C1OC(c2ccccc2)C(O)=C1c1ccccc1 (configuration not stated) ?
inactive

Any idea what this test logged for "O=C1/C(=C/c2ccccc2)SC(=S)N1CCc1ccc(O)cc1" ?
inactive

Any idea what this test logged for "COc1cccc(-c2nc3sccn3c2-c2ccnc(NCCNS(=O)(=O)c3ccc(F)cc3)c2)c1" ?
inactive

Any idea what this test logged for "COc1cc2c(cc1-c1c(C)noc1C)ncc1nc(C3CCOCC3)n([C@H](C)COC(F)F)c12" ?
inactive

Any idea what this test logged for "CC(=O)c1cc2c(N)c(C(=O)Nc3cccc4ccccc34)sc2nc1C" ?
inactive

Any idea what this test logged for "C#CCOc1ccc2ncnc(Nc3cccc(CNC(=O)CCl)c3)c2c1" ?
inactive

Any idea what this test logged for "Cn1c(=O)[nH]c(=O)c2nc(CCC(=O)NCCC(=O)O)c(=O)[nH]c21" ?
inactive

Taken from PubChem BioAssay (NCI).
